All values here come from ChEMBL document CHEMBL1212924.

- Test Method Notes: Clearance in rat at 1 mg/kg, iv and 2 mg/kg, po
- Format: ADME, organism-based
- Experimental Conditions: in vivo
Readout Kind: clearance (mL/min/kg)

// solved cases for clearance follow
COc1ccc2c(c1)C[C@H](C(=O)Nc1cc(F)c(-c3cn[nH]c3)cc1OCCN(C)C)NC2 :: 4.6
CN(C)CCOc1cc(-c2cn[nH]c2)c(F)cc1NC(=O)[C@H]1Cc2ccccc2CN1 :: 106
CN(C)CCOc1cc(-c2cn[nH]c2)c(F)cc1NC(=O)[C@H]1Cc2ccccc2CN1CC1CC1 :: 42

A = COc1ccc2c(c1)C[C@H](C(=O)Nc1ccc(-c3cn[nH]c3)cc1OCC1CCN(C)CC1)NC2
B = CCN1Cc2ccc(OC)cc2C[C@@H]1C(=O)Nc1cc(F)c(-c2cn[nH]c2)cc1OCCN(C)C
C = COc1ccc2c(c1)C[C@H](C(=O)Nc1ccc(-c3cn[nH]c3)cc1OCCN(C)C)NC2
hey, can you rank those compounds up there by clearance? biggest number first please In plain terms: list the labels in the order you were asked to.
B, A, C
(B: 130 mL/min/kg, A: 41 mL/min/kg, C: 17 mL/min/kg)
